TARGET DESC: hURAT1 (Homo sapiens)
Sequence (Q96S37 whole entry): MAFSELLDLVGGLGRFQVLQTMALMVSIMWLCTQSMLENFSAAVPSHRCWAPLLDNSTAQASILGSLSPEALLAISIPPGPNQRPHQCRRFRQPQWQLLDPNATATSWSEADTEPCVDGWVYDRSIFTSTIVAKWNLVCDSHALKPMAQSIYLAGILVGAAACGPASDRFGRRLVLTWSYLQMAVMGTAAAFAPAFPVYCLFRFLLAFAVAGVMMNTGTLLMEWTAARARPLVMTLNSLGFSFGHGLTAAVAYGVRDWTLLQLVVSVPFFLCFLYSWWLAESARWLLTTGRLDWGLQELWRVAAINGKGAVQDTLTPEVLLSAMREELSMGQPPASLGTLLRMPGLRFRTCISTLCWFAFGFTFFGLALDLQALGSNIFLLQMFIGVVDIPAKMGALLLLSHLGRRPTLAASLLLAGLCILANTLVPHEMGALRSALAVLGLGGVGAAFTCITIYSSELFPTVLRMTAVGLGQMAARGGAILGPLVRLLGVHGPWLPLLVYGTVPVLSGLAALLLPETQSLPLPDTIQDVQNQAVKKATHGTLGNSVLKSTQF
ASSAY REMARKS: Inhibitory activity against URAT1: 14C-labelled uric acid uptake in HEK-293t cells stably expressing hURAT1
Format: cell-based
REPORTED CONDITIONS: HEK-293t/hURAT1 cells, 14C uric acid uptake, 5 minutes at room temperature; Ref Cpd 2, 83, Ref Cpd 3 and 129 are averages of head-to-head tests; read-out: IC50 (nM) of hURAT1 inhibitory activity
ASSAY READOUT: IC50 (nM)

COc1ccccc1-c1ccc2nccc(SC(C)(C)C(=O)O)c2c1 [Compound 19]; 472

[P] CC(C)(Sc1ccnc2ccc(Br)cc12)C(=O)O [Compound 22]
[Q] Cc1cc(-c2ccc3nccc(SC(C)(C)C(=O)O)c3c2)ccn1 [Compound 120]
Query block: // select label with min value of measured IC50 from [ P , Q ] # answer = label of selected item
Result block: P
(P: 159 nM, Q: 1240 nM)
